molecular target: CYP130A1 (CYP130A1-BM3R) (Mycobacterium tuberculosis)
Sequence (P9WPN5 whole entry, looked up): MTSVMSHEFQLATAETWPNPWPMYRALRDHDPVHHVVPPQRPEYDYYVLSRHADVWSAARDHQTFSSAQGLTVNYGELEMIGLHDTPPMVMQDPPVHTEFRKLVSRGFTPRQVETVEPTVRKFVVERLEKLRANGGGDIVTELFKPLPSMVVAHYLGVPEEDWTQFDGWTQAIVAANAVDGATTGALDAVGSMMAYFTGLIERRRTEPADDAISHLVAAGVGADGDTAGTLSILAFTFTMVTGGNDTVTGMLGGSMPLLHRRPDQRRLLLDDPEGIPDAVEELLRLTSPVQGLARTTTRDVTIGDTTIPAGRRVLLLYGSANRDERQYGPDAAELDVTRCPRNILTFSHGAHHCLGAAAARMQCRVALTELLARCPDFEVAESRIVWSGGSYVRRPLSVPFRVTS
The entries below come with measured pIC50 values attached.
Kindly note that pIC50 refers to -log10 of the concentration in mol/L and answer with the value alone.

Guide cases for pIC50, answers given:
Clc1ccc(COC(Cn2ccnc2)c2ccc(Cl)cc2Cl)cc1 (stereo not drawn); 7.30
Clc1ccc(COC(Cn2ccnc2)c2ccc(Cl)cc2Cl)c(Cl)c1 (stereo not drawn); 7.77

Here is the next item to consider.
Q. Suppose we examine the compound CC(=O)N1CCN(c2ccc(OC[C@H]3CO[C@](Cn4ccnc4)(c4ccc(Cl)cc4Cl)O3)cc2)CC1 (racemic) ; what pIC50 value has been reported?
A. 7.00
